The measurements presented in this section are drawn from ChEMBL document CHEMBL5634099.

Test system: Mycobacterium tuberculosis
EXPERIMENT_SUMMARY: Antimycobacterial activity against Mycobacterium tuberculosis H37Rv ATCC 27294 assessed as bacterial growth inhibition incubated for 7 days by resazurin dye based assay
Type: functional
CONDITION_DETAILS: H37Rv ATCC 27294, 168 h, time 7 day
MEASUREMENT_TYPE: MIC (µg/mL)

INSERT INTO results (chemical_smiles, reported_relation, experimental_result) VALUES
  ('COc1ccc(-n2c(C)cc(/C=C3\S/C(=N/c4nc(C)c(C)s4)NC3=O)c2C)cc1OC', '>', 64),
  ('Cc1nc(/N=C2\NC(=O)/C(=C/c3cc(C)n(-c4cc(Cl)ccc4O)c3C)S2)sc1C', '>', 64),
  ('Cc1ccc(-n2c(C)cc(/C=C3\S/C(=N/c4nc(C)c(C)s4)NC3=O)c2C)cc1C', '=', 4),
  ('Cc1cc(/C=C2\S/C(=N/c3nccs3)NC2=O)c(C)n1-c1cccc(F)c1', '=', 8),
  ('Cc1nc(/N=C2\NC(=O)/C(=C/c3cc(C)n(-c4cccc(Cl)c4)c3C)S2)sc1C', '=', 4),
  ('Cc1ccc(-n2c(C)cc(/C=C3\S/C(=N/c4nccs4)NC3=O)c2C)cc1C', '=', 0.5),
  ('Cc1nc(/N=C2\NC(=O)/C(=C/c3cc(C)n(-c4ccc(F)cc4)c3C)S2)sc1C', '=', 16),
  ('Cc1cc(/C=C2\S/C(=N/c3nccs3)NC2=O)c(C)n1-c1ccc(F)cc1', '=', 4),
  ('Cc1nc(/N=C2\NC(=O)/C(=C/c3cc(C)n(-c4ccc([N+](=O)[O-])c(C(F)(F)F)c4)c3C)S2)sc1C', '>', 64),
  ('Cc1nc(/N=C2\NC(=O)/C(=C/c3cc(C)n(-c4cccc(F)c4)c3C)S2)sc1C', '=', 64),
  ('Cc1cc(/C=C2\S/C(=N/c3nccs3)NC2=O)c(C)n1-c1ccc(N2CCOCC2)cc1', '=', 4),
  ('Cc1cc(/C=C2\S/C(=N/c3nccs3)NC2=O)c(C)n1-c1ccc([N+](=O)[O-])cc1', '>', 64),
  ('COc1ccccc1-n1c(C)cc(/C=C2\S/C(=N/c3nccs3)NC2=O)c1C', '=', 2),
  ('Cc1cc(/C=C2\S/C(=N/c3nccs3)NC2=O)c(C)n1-c1ccccc1O', '=', 16),
  ('Cc1cc(/C=C2\S/C(=N/c3nccs3)NC2=O)c(C)n1-c1ccc(Cl)cc1', '=', 8),
  ('COc1cccc(-n2c(C)cc(/C=C3\S/C(=N/c4nc(C)c(C)s4)NC3=O)c2C)c1', '=', 2),
  ('Cc1nc(/N=C2\NC(=O)/C(=C/c3cc(C)n(-c4ccc(C#N)c(Cl)c4)c3C)S2)sc1C', '>', 64),
  ('Cc1cc(/C=C2\S/C(=N/c3nccs3)NC2=O)c(C)n1-c1ccccc1Cl', '=', 16),
  ('Cc1nc(/N=C2\NC(=O)/C(=C/c3cc(C)n(-c4ccccc4Br)c3C)S2)sc1C', '=', 4),
  ('Cc1nc(/N=C2\NC(=O)/C(=C/c3cc(C)n(-c4ccccc4O)c3C)S2)sc1C', '>', 64),
  ('Cc1ccc(-n2c(C)cc(/C=C3\S/C(=N/c4nc(C)c(C)s4)NC3=O)c2C)cc1', '>', 64),
  ('Cc1cc(/C=C2\S/C(=N/c3nccs3)NC2=O)c(C)n1-c1ccccc1Br', '=', 8),
  ('COc1ccc(-n2c(C)cc(/C=C3\S/C(=N/c4nccs4)NC3=O)c2C)cc1OC', '=', 8),
  ('Cc1nc(/N=C2\NC(=O)/C(=C/c3cc(C)n(-c4ccccc4Cl)c3C)S2)sc1C', '=', 2),
  ('Cc1cc(/C=C2\S/C(=N/c3nccs3)NC2=O)c(C)n1-c1cc(Cl)ccc1O', '=', 32),
  ('COc1ccc(-n2c(C)cc(/C=C3\S/C(=N/c4nc(C)c(C)s4)NC3=O)c2C)cc1', '>', 64),
  ('Cc1cc(/C=C2\S/C(=N/c3nccs3)NC2=O)c(C)n1-c1ccccc1', '=', 8),
  ('Cc1nc(/N=C2\NC(=O)/C(=C/c3cc(C)n(-c4ccc(Cl)cc4)c3C)S2)sc1C', '>', 64),
  ('COc1ccccc1-n1c(C)cc(/C=C2\S/C(=N/c3nc(C)c(C)s3)NC2=O)c1C', '>', 64),
  ('COc1ccc(-n2c(C)cc(/C=C3\S/C(=N/c4nccs4)NC3=O)c2C)cc1', '=', 64),
  ('Cc1nc(/N=C2\NC(=O)/C(=C/c3cc(C)n(-c4ccc(N5CCOCC5)cc4)c3C)S2)sc1C', '>', 64),
  ('Cc1nc(/N=C2\NC(=O)/C(=C/c3cc(C)n(-c4ccccc4)c3C)S2)sc1C', '>', 64),
  ('Cc1ccc(-n2c(C)cc(/C=C3\S/C(=N/c4nccs4)NC3=O)c2C)cc1', '=', 8),
  ('Cc1cc(/C=C2\S/C(=N/c3nccs3)NC2=O)c(C)n1-c1cccc(Cl)c1', '>', 64),
  ('Cc1cc(/C=C2\S/C(=N/c3nccs3)NC2=O)c(C)n1-c1ccc([N+](=O)[O-])c(C(F)(F)F)c1', '>', 64),
  ('Cc1nc(/N=C2\NC(=O)/C(=C/c3cc(C)n(-c4ccc([N+](=O)[O-])cc4)c3C)S2)sc1C', '>', 64),
  ('COc1cccc(-n2c(C)cc(/C=C3\S/C(=N/c4nccs4)NC3=O)c2C)c1', '>', 64),
  ('Cc1cc(/C=C2\S/C(=N/c3nccs3)NC2=O)c(C)n1-c1ccc(C#N)c(Cl)c1', '=', 16);
